Biological target: Pdr3 (UniProt P33200)
Sequence: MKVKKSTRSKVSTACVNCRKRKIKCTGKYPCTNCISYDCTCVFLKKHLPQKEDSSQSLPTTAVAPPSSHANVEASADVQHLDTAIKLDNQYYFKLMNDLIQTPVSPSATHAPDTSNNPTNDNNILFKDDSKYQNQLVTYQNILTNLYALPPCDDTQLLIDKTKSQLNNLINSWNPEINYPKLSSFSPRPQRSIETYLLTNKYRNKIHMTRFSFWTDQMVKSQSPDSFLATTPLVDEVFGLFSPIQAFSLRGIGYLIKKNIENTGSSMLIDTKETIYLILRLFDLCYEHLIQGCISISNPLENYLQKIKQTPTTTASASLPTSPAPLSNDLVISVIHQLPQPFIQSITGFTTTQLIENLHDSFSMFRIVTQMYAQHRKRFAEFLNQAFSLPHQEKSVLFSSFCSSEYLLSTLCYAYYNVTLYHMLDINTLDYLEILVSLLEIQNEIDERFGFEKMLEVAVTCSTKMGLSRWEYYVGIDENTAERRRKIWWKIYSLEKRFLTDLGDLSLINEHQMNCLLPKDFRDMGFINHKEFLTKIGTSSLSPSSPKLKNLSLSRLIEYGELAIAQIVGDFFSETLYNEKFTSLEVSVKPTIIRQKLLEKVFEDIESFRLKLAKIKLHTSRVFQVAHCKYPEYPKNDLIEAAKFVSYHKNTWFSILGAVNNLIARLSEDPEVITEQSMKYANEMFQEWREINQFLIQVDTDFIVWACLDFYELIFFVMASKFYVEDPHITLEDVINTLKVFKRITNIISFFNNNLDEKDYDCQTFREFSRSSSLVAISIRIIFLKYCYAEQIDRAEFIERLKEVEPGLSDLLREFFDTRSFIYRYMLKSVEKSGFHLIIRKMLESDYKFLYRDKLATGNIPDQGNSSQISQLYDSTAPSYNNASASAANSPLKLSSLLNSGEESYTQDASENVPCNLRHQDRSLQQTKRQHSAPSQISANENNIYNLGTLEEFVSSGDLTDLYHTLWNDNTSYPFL
Experiment: PBM E-score (8-mer binding enrichment) (E-score (-0.5 to 0.5)); higher = stronger / more preferred TF binding
Conditions: protein concentration: 200 nM; construct: GST-full length
Whole data set: some 33,000 sequences, median “E-score (-0.5 to 0.5)” near -0.035, cut for the highest 2% near 0.35. Many of the other results were omitted from the sample, so the highest values are more common in it than they were.
The following sequences are shown together with reported PBM E-score values.
Measured Property: PBM E-score

>>> val("AATATTTG")
0.0496
>>> val("ACGGATCA")
0.366
>>> val("CGACCACA")
-0.0427
>>> val("ATTCCAGA")
0.0594
>>> val("CTTCCGGC")
0.398
>>> val("CTCAGAAC")
-0.135
>>> val("GTTCCTGA")
-0.0384
>>> val("AACGCATC")
-0.139
>>> val("CCGGATCC")
0.433

---

The following sequences are shown together with reported PBM E-score values.
Target: Pdr3 (UniProt P33200)
Sequence: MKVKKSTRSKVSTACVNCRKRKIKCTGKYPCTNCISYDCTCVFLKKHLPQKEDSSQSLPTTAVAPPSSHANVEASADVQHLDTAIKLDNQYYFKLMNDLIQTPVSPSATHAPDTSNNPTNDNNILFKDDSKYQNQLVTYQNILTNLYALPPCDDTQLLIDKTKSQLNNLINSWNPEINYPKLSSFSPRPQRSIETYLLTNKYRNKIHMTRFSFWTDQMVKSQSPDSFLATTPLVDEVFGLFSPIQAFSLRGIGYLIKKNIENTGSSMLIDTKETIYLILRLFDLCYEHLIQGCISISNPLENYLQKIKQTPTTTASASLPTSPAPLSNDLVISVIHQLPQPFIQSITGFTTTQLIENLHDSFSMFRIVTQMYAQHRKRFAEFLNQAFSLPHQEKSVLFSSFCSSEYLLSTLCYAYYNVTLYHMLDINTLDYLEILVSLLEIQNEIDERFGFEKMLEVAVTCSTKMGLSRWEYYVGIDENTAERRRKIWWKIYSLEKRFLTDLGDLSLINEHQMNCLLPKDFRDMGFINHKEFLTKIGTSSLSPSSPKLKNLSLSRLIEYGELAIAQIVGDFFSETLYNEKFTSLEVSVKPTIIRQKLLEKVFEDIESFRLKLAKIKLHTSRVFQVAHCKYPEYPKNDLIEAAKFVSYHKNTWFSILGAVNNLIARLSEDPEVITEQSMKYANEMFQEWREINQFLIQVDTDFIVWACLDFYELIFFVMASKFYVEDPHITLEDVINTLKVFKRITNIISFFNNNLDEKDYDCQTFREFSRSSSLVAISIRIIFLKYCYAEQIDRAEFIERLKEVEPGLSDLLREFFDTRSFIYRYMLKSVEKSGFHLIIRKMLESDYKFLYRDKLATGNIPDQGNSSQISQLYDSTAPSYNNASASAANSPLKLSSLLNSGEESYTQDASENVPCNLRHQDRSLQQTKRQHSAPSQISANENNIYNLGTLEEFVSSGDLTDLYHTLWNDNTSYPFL
Assay: PBM E-score (8-mer binding enrichment) (E-score (-0.5 to 0.5)); higher = stronger / more preferred TF binding
Conditions: protein concentration: 200 nM; construct: GST-full length
Whole data set: some 33,000 sequences, median “E-score (-0.5 to 0.5)” near -0.035, cut for the highest 2% near 0.35. What follows is part of a selection rich in the highest values, with near analogues and random picks from the rest.
Measured Property: PBM E-score

>>> val("CACACGGA")
0.304
>>> val("CCATTCCA")
0.0798
>>> val("AGCGGATA")
0.3

---

Target: Pdr3 (UniProt P33200)
Sequence: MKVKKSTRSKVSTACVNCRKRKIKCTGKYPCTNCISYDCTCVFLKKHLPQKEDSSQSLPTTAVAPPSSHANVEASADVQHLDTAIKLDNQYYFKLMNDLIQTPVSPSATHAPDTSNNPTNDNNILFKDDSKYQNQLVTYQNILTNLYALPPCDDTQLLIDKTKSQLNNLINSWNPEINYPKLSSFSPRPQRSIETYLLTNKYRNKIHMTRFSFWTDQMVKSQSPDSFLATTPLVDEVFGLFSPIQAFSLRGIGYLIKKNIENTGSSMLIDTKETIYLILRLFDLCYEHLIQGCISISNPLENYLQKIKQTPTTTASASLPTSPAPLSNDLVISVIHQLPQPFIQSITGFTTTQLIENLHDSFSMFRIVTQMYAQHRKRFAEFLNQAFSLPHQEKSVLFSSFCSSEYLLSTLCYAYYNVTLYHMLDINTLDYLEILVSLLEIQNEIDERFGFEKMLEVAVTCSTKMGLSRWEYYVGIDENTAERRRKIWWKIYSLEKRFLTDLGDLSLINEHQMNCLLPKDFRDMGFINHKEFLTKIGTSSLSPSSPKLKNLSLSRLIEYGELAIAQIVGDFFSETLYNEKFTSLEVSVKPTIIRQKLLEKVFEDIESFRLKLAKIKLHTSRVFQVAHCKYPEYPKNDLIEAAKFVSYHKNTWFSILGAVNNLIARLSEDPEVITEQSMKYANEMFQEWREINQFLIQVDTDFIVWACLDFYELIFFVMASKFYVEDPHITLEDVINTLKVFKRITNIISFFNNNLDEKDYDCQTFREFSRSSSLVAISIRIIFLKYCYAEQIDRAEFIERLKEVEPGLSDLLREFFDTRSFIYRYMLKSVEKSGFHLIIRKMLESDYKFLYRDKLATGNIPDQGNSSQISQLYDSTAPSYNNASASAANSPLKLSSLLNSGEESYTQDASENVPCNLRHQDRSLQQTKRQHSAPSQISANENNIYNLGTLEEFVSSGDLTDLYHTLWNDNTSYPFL
Assay: PBM E-score (8-mer binding enrichment) (E-score (-0.5 to 0.5)); higher = stronger / more preferred TF binding
Settings: protein concentration: 200 nM; construct: GST-full length
In all, about 33,000 sequences were measured (“E-score (-0.5 to 0.5)”: median about -0.035, highest 2% from about 0.35 on). Only a selection was taken, and the highest values are over-represented in it overall.
Values of PBM E-score greater than or equal to 0.2 map to 1.0; values below map to 0.0.

>>> class_name("ACCCGGGA")
1.0
>>> class_name("CCGCTCCC")
0.0
>>> class_name("AGCGGTCC")
0.0
>>> class_name("ATCCTATC")
0.0
>>> class_name("AGCCGCGG")
1.0
>>> class_name("AAGAGCCC")
0.0
>>> class_name("GAGGAAAC")
0.0
>>> class_name("AGCCGCGA")
0.0
>>> class_name("GCCCGGGC")
1.0
>>> class_name("GTCCGGCA")
1.0
>>> class_name("CCTAGAAG")
0.0
>>> class_name("GTTCGGCA")
0.0
>>> class_name("GTGCGGGA")
1.0
>>> class_name("CATCTCCG")
1.0
>>> class_name("CACCGCGG")
1.0
>>> class_name("ACATGCGT")
0.0
>>> class_name("ACCAAAAG")
0.0
>>> class_name("ATTCGGAC")
1.0
>>> class_name("CTTATCCA")
0.0
>>> class_name("ACGATCCC")
0.0
>>> class_name("AGCTTAAG")
0.0
>>> class_name("AAGCCGCC")
0.0
>>> class_name("GCTACTGA")
0.0
>>> class_name("CACCGCGC")
0.0
>>> class_name("GGATCTCA")
0.0
>>> class_name("ATCCGCAT")
1.0
>>> class_name("CTCATTCC")
1.0
>>> class_name("ATTCGGAA")
1.0
>>> class_name("CGGAATAG")
1.0
>>> class_name("ATGCGGAC")
0.0
>>> class_name("AGCCGCGC")
1.0
>>> class_name("CCGATCCC")
0.0
>>> class_name("ACTGAGAA")
0.0
>>> class_name("CTTCGGAA")
1.0
>>> class_name("CTTCGGAC")
1.0
>>> class_name("ACGATCCG")
1.0
>>> class_name("GCGGAAAC")
1.0
>>> class_name("CATTGCAC")
0.0
>>> class_name("CGGAATAC")
1.0
>>> class_name("GGCAAACC")
0.0
>>> class_name("TCCTACAA")
0.0
>>> class_name("CTCGGCAG")
1.0
>>> class_name("CACCGCGA")
0.0
>>> class_name("GAGCGGGC")
0.0
>>> class_name("AAGCTATT")
0.0
>>> class_name("AACCGCGT")
0.0
>>> class_name("AGAGCGAC")
0.0
>>> class_name("CGAGTCGC")
0.0
>>> class_name("ACGATCCA")
0.0
>>> class_name("CGCTATCA")
0.0
>>> class_name("ATGCGGAG")
0.0
>>> class_name("CGCCGAGA")
1.0
>>> class_name("AATCTCCG")
1.0
>>> class_name("CCCTGAGA")
0.0
>>> class_name("AGCGGTAA")
0.0
>>> class_name("CCAGTTCC")
1.0
>>> class_name("CAGAATAG")
0.0
>>> class_name("CCGCTCCG")
1.0
>>> class_name("GCCCCAGC")
0.0
>>> class_name("AGCGGTAC")
0.0
>>> class_name("ACAGTTCT")
0.0
>>> class_name("GTCTGACA")
0.0
>>> class_name("CAGTCTGC")
0.0
>>> class_name("TGGGAAAA")
0.0
>>> class_name("ACCCGGGC")
1.0
>>> class_name("ATAGGAGA")
0.0
>>> class_name("CAATAAGA")
0.0
>>> class_name("AGTTCAAG")
0.0
>>> class_name("ATCCGGAT")
1.0
>>> class_name("GTGCGGAA")
1.0
>>> class_name("GTTACCCA")
0.0
>>> class_name("ACGGCACA")
0.0
